Biological target: FPR2 (Homo sapiens (Human), UniProt P25090)
Sequence (P25090 whole entry): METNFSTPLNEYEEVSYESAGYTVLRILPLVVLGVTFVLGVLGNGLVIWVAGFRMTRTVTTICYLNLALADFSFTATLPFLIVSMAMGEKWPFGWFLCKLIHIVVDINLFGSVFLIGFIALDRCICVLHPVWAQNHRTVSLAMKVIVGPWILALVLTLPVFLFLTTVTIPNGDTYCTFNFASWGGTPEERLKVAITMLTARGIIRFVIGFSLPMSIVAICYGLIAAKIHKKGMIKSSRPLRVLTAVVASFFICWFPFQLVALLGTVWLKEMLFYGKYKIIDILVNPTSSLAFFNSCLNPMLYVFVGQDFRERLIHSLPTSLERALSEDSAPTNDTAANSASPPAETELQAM
Assay: Agonistic activity (calcium FLIPR) in hFPR2-Aq-CHO cells
Conditions: FLIPR Calcium 5 dye fluorescence, agonistic response
Description: Cells (hFPR1-Gα15-CHO or hFPR2-Aq-CHO) are suspended in 10 mL of respective complete medium (F12(1×) HAM media; 10% HI-FBS; 0.1 mg/ml Hygromycin B and 0.2 mg/ml Zeocin [for hFPR1 only]; 0.4 mg/mL Geneticin and 0.25 mg/ml Zeocin [for hFPR2-Aq only]) and viability is checked using Trypan Blue exclusion. […] The increase in fluorescence from the basal reading in the presence of the compounds is compared with that of the control wells (wells having no compound) to calculate the activity of the compounds. […]
Field: EC50. Provide a value for each of the molecules that follow.

// field: EC50; key: COc1ccc(C2C(NC(=O)Nc3ccc(Cl)cc3)CCCN2C)cc1 (single isomer, unassigned; dia1) [Example 89] ; value = 1 to 1000 nM

// field: EC50; key: COc1cc(F)c([C@@H]2CC(=O)N(CC3CC3)C[C@H]2NC(=O)Nc2ccc(Cl)cc2)c(F)c1 (racemic) ; value = < 1 nM

// field: EC50; key: CCc1cc(F)c([C@@H]2CC(=O)NC[C@H]2NC(=O)Nc2ccc(Cl)cc2)c(F)c1 (racemic) ; value = 1 to 1000 nM

// field: EC50; key: COc1ccc([C@@H]2CC(=O)N(C)C[C@H]2NC(=O)Nc2ccc(Cl)cc2)cc1 (stereo in doubt) [Example 11] ; value = 1 to 1000 nM

// field: EC50; key: COc1cc(F)c(C2CCNCC2NC(=O)Nc2ccc(Cl)cc2)c(F)c1 (single isomer, unassigned; ent1) [Example 36] ; value = < 1 nM

// field: EC50; key: COc1cc(F)c([C@@H]2CC(=O)NC[C@H]2NC(=O)Nc2ccc(Cl)c(F)c2)c(F)c1 (racemic) ; value = 1 to 1000 nM

// field: EC50; key: O=C1CC(c2ccc(F)cc2F)C(NC(=O)Nc2ccc(Cl)cc2)CN1 (single isomer, unassigned; ent2) [Example 68] ; value = 1 to 1000 nM

// field: EC50; key: COc1ccc(C2CCN(C(C)=O)C[C@H]2NC(=O)Nc2ccc(C)nc2)cc1 (mixture of isomers) ; value = 1 to 1000 nM

// field: EC50; key: COc1ccc([C@@H]2CC(=O)N(CC(N)=O)C[C@H]2NC(=O)Nc2ccc(Cl)cc2)cc1 (racemic) ; value = < 1 nM

// field: EC50; key: COc1ccc([C@@H]2CC(=O)NC[C@H]2NC(=O)Nc2ccc(Cl)cc2)cc1 (racemic) ; value = < 1 nM

// field: EC50; key: COc1ccc([C@@H]2CCN(C(=O)CCO)C[C@H]2NC(=O)Nc2ccc(Cl)cc2)cc1 (racemic) ; value = < 1 nM

====

Target: FPR2 (Homo sapiens (Human))
Experiment: Agonistic activity (calcium FLIPR) in hFPR2-Aq-CHO cells
Conditions: FLIPR Calcium 5 dye fluorescence, agonistic response
Assay metric: EC50

// field: EC50; key: COc1cc(F)c([C@@H]2CC(=O)NC[C@H]2NC(=O)Nc2ccc(Cl)s2)c(F)c1 (racemic) ; value = 1 to 1000 nM

// field: EC50; key: COc1ccc([C@@H]2CCN(C(=O)CC(C)C)C[C@H]2NC(=O)Nc2ccc(Cl)cc2)cc1 (racemic) ; value = < 1 nM

// field: EC50; key: COc1cc(F)c(C2CC(=O)NCC2NC(=O)Nc2ccc(Cl)cc2)c(F)c1 (single isomer, unassigned; ent1) [Example 49] ; value = 1 to 1000 nM

// field: EC50; key: COc1ccc(C2CC(=O)NCC2NC(=O)Nc2ccc(Cl)cc2)c(F)c1 (single isomer, unassigned; ent1) [Example 42] ; value = < 1 nM

// field: EC50; key: COc1cc(F)c(C2CC(=O)NCC2NC(=O)Nc2ccncc2)c(F)c1 (single isomer, unassigned; ent2) [Example 48] ; value = 1 to 1000 nM

// field: EC50; key: COc1cc(F)c([C@@H]2CCNC[C@H]2NC(=O)Nc2ccc(Cl)cc2)c(F)c1 (racemic) ; value = < 1 nM

// field: EC50; key: COC(=O)CN1C[C@@H](NC(=O)Nc2ccc(Cl)cc2)[C@H](c2ccc(OC)cc2)CC1=O (racemic) ; value = < 1 nM

// field: EC50; key: COc1ccc(C2CCN(C(=O)C3CC3)CC2NC(=O)Nc2ccc(Cl)cc2)c(F)c1 (single isomer, unassigned; ent1) ; value = < 1 nM

// field: EC50; key: COc1ccc(C2CC(=O)N(CC(F)F)CC2NC(=O)Nc2ccc(Cl)cc2)c(F)c1 (single isomer, unassigned; ent2) [Example 62] ; value = 1 to 1000 nM

// field: EC50; key: COc1ccc(C2CCNCC2NC(=O)Nc2ccc(Cl)cc2)c(F)c1 (single isomer, unassigned; ent2) ; value = 1 to 1000 nM

// field: EC50; key: COc1ccc([C@@H]2CCN(C(C)=O)C[C@H]2NC(=O)Nc2ccc(C)nc2)cc1 (racemic) ; value = 1 to 1000 nM

// field: EC50; key: O=C1CC(c2ccc(Cl)cc2)C(NC(=O)Nc2ccc(Cl)cc2)CN1 (single isomer, unassigned; ent1) ; value = 1 to 1000 nM

// field: EC50; key: COc1ccc([C@@H]2CCN(C(=O)CO)C[C@H]2NC(=O)Nc2ccc(Cl)cc2)cc1 (racemic) ; value = < 1 nM

// field: EC50; key: COc1cc(F)c(C2CC(=O)NCC2NC(=O)Nc2ccc(Cl)cc2)c(F)c1 (single isomer, unassigned; ent2) [Example 50] ; value = < 1 nM

Where these numbers come from: patent US10265310B2
